// provenance: ChEMBL document CHEMBL3351363

Imax: recorded values
Target: Muscarinic acetylcholine receptor M4 (Homo sapiens) (UniProt P08173)
Sequence (whole entry): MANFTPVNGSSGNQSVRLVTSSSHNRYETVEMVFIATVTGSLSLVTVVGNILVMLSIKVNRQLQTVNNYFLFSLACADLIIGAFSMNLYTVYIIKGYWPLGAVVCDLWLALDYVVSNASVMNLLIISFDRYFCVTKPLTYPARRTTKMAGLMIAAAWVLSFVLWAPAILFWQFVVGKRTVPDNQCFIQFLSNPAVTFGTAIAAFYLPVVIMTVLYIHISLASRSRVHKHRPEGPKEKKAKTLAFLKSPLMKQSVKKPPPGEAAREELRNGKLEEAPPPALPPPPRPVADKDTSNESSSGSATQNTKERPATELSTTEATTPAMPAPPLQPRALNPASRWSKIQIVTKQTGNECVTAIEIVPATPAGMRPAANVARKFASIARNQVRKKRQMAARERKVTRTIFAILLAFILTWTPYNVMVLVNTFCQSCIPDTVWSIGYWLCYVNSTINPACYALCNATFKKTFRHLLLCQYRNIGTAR
Test: Antagonist activity at human M4 receptor expressed in HEK293T cells assessed as inhibition of carbachol-induced response by BRET based Gq protein engagement assay relative to untreated control
Assay type: cell-based
Details: HEK-293T
Use % as the unit, but write only the number.

Below: 4 molecules and their reported Imax.
>>> observed("CCCCC1CCN(CCCN2C(=O)CCc3ccccc32)CC1")
86
>>> observed("O=C1CCc2ccccc2N1CCCN1CCC(CCCCCO)CC1")
72
>>> observed("CN1CCC=C(c2nsnc2OCCCCCCCC2CCN(CCCN3C(=O)CCc4ccccc43)CC2)C1")
92
>>> observed("O=C1CCc2ccccc2N1CCCN1CCC(CCCCCCCCCO)CC1")
92

Let us examine a further case.
So, `CN1CCC=C(c2nsnc2OCCCCCCCCCC2CCN(CCCN3C(=O)CCc4ccccc43)CC2)C1` ? Its Imax was 63

----------
Biological target: UniProt:P08173
Assay: Antagonist activity at human M4 receptor expressed in HEK293T cells assessed as inhibition of carbachol-induced response by beta-arrestin engagement assay relative to untreated control
Format: cell-based
Details: HEK-293T
# Imax listing for each entry below
Answer in %, number only, no unit symbol.

The following compounds have reported results that may help.
>>> observed("O=C1CCc2ccccc2N1CCCN1CCC(CCCCCCCO)CC1")
93
>>> observed("CN1CCN(CC(=O)N2c3ccccc3C(=O)Nc3cccnc32)CC1")
67

Shift focus to the following entry.
Record for `CN1[C@@H]2C[C@@H](OC(=O)[C@H](CO)c3ccccc3)C[C@H]1[C@@H]1O[C@@H]12` under target or system UniProt:P08173: Imax reported as 77

----------
As shown below, each of these compounds has a reported Imax value.
Target: Muscarinic acetylcholine receptor M4 (Homo sapiens)
Experiment: Antagonist activity at human M4 receptor expressed in HEK293T cells assessed as inhibition of carbachol-induced response by beta-arrestin engagement assay relative to untreated control
Format: cell-based
Conditions: HEK-293T
A number alone suffices; assume %.

>>> observed("CN1CCC=C(c2nsnc2OCCCCCCCC2CCN(CCCN3C(=O)CCc4ccccc43)CC2)C1")
14
>>> observed("CCCCC1CCN(CCCN2C(=O)CCc3ccccc32)CC1")
16

Now look at this one.
response.value for `O=C1CCc2ccccc2N1CCCN1CCC(CCCCCCCCCO)CC1` (field: Imax) = 90
